target: CDK2 (Homo sapiens, UniProt P24941); construct: CDK2/GST-Cyclin E kinase complex produced in baculovirus expression system; with Cyclin E (GST-Cyclin E); assay: radiometric kinase assay (gamma-32P-ATP, histone H1 substrate) with purified recombinant CDK2/cyclin E
pIC50: −log10 of the molar value.
The reader will find reported pIC50 values listed item by item below.

# structure, measurement_target, pIC50
records = [
    ("O=c1[nH]c2c(nc3ccccn32)c2ccccc12", "CDK2 (Homo sapiens, UniProt P24941)", "~4.00"),
]

From here, focus on the item given below.
Sample O=c1[nH]c2c(nc3ccccn32)c2cccc(O)c12 — what was its pIC50? 5.70 to 6.00
